Assay: Stability assay in human plasma
Assay type: in vitro ADME
Settings: 1 μM compound, LC-MS/MS, read-out: t½ human plasma
Structures can show the parent of a compound that is named as a salt.
Quantity Measured: half-life at 1 μM

> print(dat)
                                    molecule    result
 1  COCCOC(=O)c1cccc(C(=O)Nc2cccc(CNC3CCC(Nc4cccc5cnccc45)CC3)c2)c1 (stereo not shown)  < 20 min
 2  O=C(Nc1cccc(CN2CCC(Nc3cccc4cnccc34)C2)c1)c1cccc(C(=O)OCC2CCCO2)c1 (stereo not shown)  < 20 min
 3  COCCOC(=O)c1cccc(C(=O)Nc2cccc(CN3CCC(Nc4cccc5cnccc45)C3)c2)c1 (stereo not shown)  < 20 min
 4  CCCOC(=O)c1cccc(C(=O)Nc2cccc(CN3CCC(Nc4cccc5cnccc45)CC3)c2)c1  < 20 min
 5  O=C(Nc1cccc(CNC2CCC(Nc3cccc4cnccc34)CC2)c1)c1ccc(C(=O)OCC2CCCO2)cc1 (stereo not shown)    20 min
 6  O=C(Nc1cccc(CN2CCC(Nc3cccc4cnccc34)CC2)c1)c1cccc(C(=O)OCC2CCCO2)c1 (stereo not shown)  < 20 min
 7  CCCOC(=O)c1cccc(C(=O)Nc2cccc(CNC3CCC(Nc4cccc5cnccc45)CC3)c2)c1 (stereo not shown)  < 20 min
 8  COC(=O)c1cccc(C(=O)Nc2cc(CN3CCCC(Nc4ccc5[nH]ncc5c4)C3)ccc2C)c1 (stereo not shown) [Compound 3, dihydrochloride]    33 min
 9  COC(=O)c1cccc(C(=O)Nc2cc(CN3CCC(Nc4cccc5cnccc45)C3)ccc2C)c1 (stereo not shown)    31 min
10  O=C(Nc1cccc(CNC2CCC(Nc3cccc4cnccc34)CC2)c1)c1cccc(C(=O)OCC2CCCO2)c1 (stereo not shown)  < 20 min
11  CCCOC(=O)c1cccc(C(=O)Nc2cccc(CN3CCC(Nc4cccc5cnccc45)C3)c2)c1 (stereo not shown)  < 20 min
12  COCCOC(=O)c1cccc(C(=O)Nc2cccc(CN3CCC(Nc4cccc5cnccc45)CC3)c2)c1  < 20 min
13  COC(=O)c1cccc(C(=O)Nc2cccc(CNC3CCC(Nc4cccc5cnccc45)CC3)c2)c1 (stereo not shown)  < 20 min
